The measured values listed here are drawn from patent US20170253656A1.

Molecular target: T1, hu-CD74 antigen (R&D SYSTEMS catalog #3590-CD-050) (human, UniProt P04233-2 73-232, limits assumed)
T1 construct: Bought antigen; also called rhCD74; human CD74
T1 sequence (looked up): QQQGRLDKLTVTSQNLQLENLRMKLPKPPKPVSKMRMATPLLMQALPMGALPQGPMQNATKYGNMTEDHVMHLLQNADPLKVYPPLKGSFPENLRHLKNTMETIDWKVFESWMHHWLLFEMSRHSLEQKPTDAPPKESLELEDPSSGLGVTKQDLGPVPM
Experiment: SPR (Biacore T200), captured on anti-human Fc, rhCD74 analyte
Reported endpoint: kon
Units required after the number.

Query: Give its kon value. Item: 1193-H04b (scFv, Called scFv clone) scFv: EVQLLESGGGLVQPGGSLRLSCAASGFTFTSSWMSWVRQAPGKGLEWVGIINGYNGITYYADSVKGRFTISRDNSKNTLYLQMNSLRAEDTAVYYCAKPSAPGARRFDYWGQGTLVTVSSGGGGSGGGGSGGGGSEIVLTQSPGTLSLSPGEATLSCRASQSVSSSYLAWYQQRPGQAPRLLIYGASSRATGIPDRFSGSGSGTDFTLTISRLEPEDFAVYYCQQHYTTPPTFGQGTKVEIK
Response: 129000 M⁻¹ s⁻¹
